# target: BACE1 (Homo sapiens, UniProt P56817)
# Sequence (P56817 46-501, species assumed): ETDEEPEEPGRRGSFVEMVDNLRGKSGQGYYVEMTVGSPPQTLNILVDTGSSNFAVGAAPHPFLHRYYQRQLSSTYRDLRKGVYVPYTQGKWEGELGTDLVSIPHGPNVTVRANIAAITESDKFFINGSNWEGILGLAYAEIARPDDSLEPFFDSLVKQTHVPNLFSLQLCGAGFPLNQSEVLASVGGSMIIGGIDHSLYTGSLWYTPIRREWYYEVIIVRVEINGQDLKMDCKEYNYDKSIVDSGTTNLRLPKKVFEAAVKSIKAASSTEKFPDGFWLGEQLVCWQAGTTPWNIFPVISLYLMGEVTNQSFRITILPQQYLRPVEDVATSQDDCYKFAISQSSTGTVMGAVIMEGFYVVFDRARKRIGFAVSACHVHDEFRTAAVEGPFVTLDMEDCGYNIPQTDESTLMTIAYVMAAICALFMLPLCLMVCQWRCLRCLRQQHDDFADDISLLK
# assay details: In Vitro BACE Cell-based Assay (HEK cell assay): Aβ40 in conditioned medium of cells stably expressing Amyloid Precursor Protein, sandwich ELISA
# cond: Table IV, class symbols; read-out: HEK cell assay
measurement kind: IC50

Reported IC50 for CC(C)(C)COc1ccc2c(c1)[C@]1(COC(N)=N1)c1cc(C(=O)NC3CCCC3)ccc1O2 was 1000 to 5000 nM

get_value(item= N#Cc1cccc(-c2ccc3c(c2)[C@]2(COC(N)=N2)c2cccnc2O3)c1 , readout=IC50) returns 1000 to 5000 nM

Looking up CC(C)(C)COc1ccc2c(c1)[C@]1(COC(N)=N1)c1cc(-c3cccc4ncccc34)ccc1O2 , I found its IC50 recorded as 1000 to 5000 nM

Memo: NC1=N[C@]2(CO1)c1cc(C(=O)CCCO)ccc1Oc1ccc(-c3cccnc3)cc12 , reported IC50: 100 to 1000 nM

----------
# target: BACE1 (Homo sapiens)
# assay details: In Vitro Enzymatic BACE FRET (Fluorescence Resonance Energy Transfer) Assay
# Format: biochemical
# cond: Table IV, class symbols; read-out: BACE1 FRET assay
pIC50: −log10 of the molar value.
measurement kind: pIC50

Entry under test: CC(C)(C)COc1ccc2c(c1)[C@]1(COC(N)=N1)c1cc(-c3ccsc3)ccc1O2 . Its pIC50 was > 7.00

Form field pIC50, entry CC(C)(C)COc1ccc2c(c1)[C@]1(COC(N)=N1)c1cc(-c3cncnc3O)ccc1O2 : 6.00 to 7.00

NC1=NC2(CO1)c1cc(-c3cccnc3)ccc1Oc1c(F)cc(C3=CCOCC3)cc12 (stereo in doubt) has a reported pIC50 of > 7.00

Field pIC50 (entry CC(=O)COc1ccc2c(c1)[C@@]1(COC(N)=N1)c1cc(-c3cccnc3)cnc1O2 ) reads 6.00 to 7.00

// pIC50 value for COc1ccc2c(c1)[C@]1(COC(N)=N1)c1cc(C#CC(C)(C)OC)cnc1O2 : 5.30 to 6.00

# pIC50 of CC(C)(C)COc1ccc2c(c1)[C@]1(COC(N)=N1)c1cc(-c3ccc(C#N)nc3)ccc1O2 = > 7.00

Just so you know, measured pIC50 for COc1ccc2c(c1)[C@]1(COC(N)=N1)c1cc(-c3ccnc4ccccc34)ccc1O2 came out at 5.30 to 6.00

Lab note: measured pIC50 of COc1ccc2c(c1)[C@]1(COC(N)=N1)c1cc(NC(=O)c3ccc(Cl)nc3)ccc1O2 was 5.30 to 6.00

----------
Field: IC50. Provide a value for each of the compounds that follow.
# target: BACE1 (Homo sapiens, UniProt P56817)
# assay details: In Vitro Enzymatic BACE FRET (Fluorescence Resonance Energy Transfer) Assay
# Assay type: biochemical
# cond: Table III; IC50's in uM ranges; read-out: BACE1 FRET assay

// field: IC50; key: CC(C)(O)COc1ccc2c(c1)[C@]1(COC(N)=N1)c1cc(-c3ccc(F)nc3)ccc1O2 [compound 222] ; value = < 0.1 µM

IC50 recorded for this compound, Cc1n[nH]cc1-c1ccc2c(c1)[C@@]1(COC(N)=N1)c1cc(OCC(C)(C)C)ccc1O2 [Example 129, 2,2,2-trifluoroacetate] , is 0.1 to 1 µM

Recorded result, CC(C)(C)CC(=O)c1ccc2c(c1)[C@]1(COC(N)=N1)c1cc(-c3ccc(F)nc3)ccc1O2 [150a] , IC50: < 0.1 µM

IC50 in this record for CC(C)(C)COc1ccc2c(c1)[C@@]1(COC(N)=N1)c1cc(-c3cncnc3)cc(F)c1O2 [155a] : < 0.1 µM

// IC50 value for CN(C)CC#Cc1ccc2c(c1)[C@@]1(COC(N)=N1)c1cc(-c3cncnc3)ccc1O2 [117b] : 1 to 5 µM

Value of IC50 reported for the compound CC(C)(F)COc1ccc2c(c1)[C@]1(COC(N)=N1)c1cc(-c3cccnc3)cnc1O2 [compound 177] is < 0.1 µM

Please fill in: IC50 reported for COc1ccc2c(c1)[C@]1(N=C(N)O[C@@H]1C)c1cc(-c3cncnc3)ccc1O2 (single isomer, unassigned) [Example 125c] = > 5 µM

Entry source: patent US8426447B2
